# target_of_assay: Aurora kinase A (AURKA) (Homo sapiens)
# Construct: endogenous in cells; host or cells: HeLa LgBit (AURKA-HiBit KI), CRISPR/Cas9 knock-in at the endogenous AURKA locus
# Sequence (O14965 whole entry): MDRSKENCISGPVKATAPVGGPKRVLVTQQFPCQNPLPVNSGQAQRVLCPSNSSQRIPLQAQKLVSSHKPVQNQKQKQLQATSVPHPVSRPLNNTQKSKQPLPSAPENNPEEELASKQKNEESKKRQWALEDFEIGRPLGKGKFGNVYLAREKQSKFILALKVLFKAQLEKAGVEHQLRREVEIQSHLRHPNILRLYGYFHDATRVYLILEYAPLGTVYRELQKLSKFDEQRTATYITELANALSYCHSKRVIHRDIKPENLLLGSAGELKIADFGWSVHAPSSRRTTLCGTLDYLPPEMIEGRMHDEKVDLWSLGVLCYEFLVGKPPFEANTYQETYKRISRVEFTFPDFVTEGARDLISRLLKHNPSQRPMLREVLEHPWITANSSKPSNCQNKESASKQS
# protocol_description: Luciferase assay for AURKA in HeLa LgBit (AURKA-HiBit KI) cell line
# Format: cell-based
# measurement_context: 100 nM compound, HeLa LgBit (AURKA-HiBit KI) cells, measured after 12 hours
recorded_endpoint: luminescence value (Level)

>>> reported_value("C[C@@H](CN1CCN(c2ccc(C3CCC(=O)NC3=O)cc2)CC1)C1CCN(NC(=O)c2ccc(Nc3ncc(F)c(Nc4ccc(C(=O)Nc5ccccc5Cl)cc4)n3)cc2)CC1 (some centres unmarked)")
"A (A is <0.2)"
>>> reported_value("C[C@H]1CN(c2ccc(C3CCC(=O)NC3=O)cc2)CCN1CCC1CCN(NC(=O)c2ccc(Nc3ncc(F)c(Nc4ccc(C(=O)Nc5ccccc5Cl)cc4)n3)cc2)CC1 (some centres unmarked)")
"A (A is <0.2)"
>>> reported_value("O=C1CCC(Nc2ccc(N3CCN(CCC4CCN(NC(=O)c5ccc(Nc6ncc(F)c(Nc7ccc(C(=O)Nc8ccccc8Cl)cc7)n6)cc5)CC4)CC3)cc2)C(=O)N1 (centres unmarked)")
"A (A is <0.2)"
>>> reported_value("O=C1CCC(c2ccc(N3CCN(C(=O)CN4CCC(NC(=O)c5ccc(Nc6ncc(F)c(Nc7ccc(C(=O)Nc8ccccc8Cl)cc7)n6)cc5)CC4)CC3)cc2)C(=O)N1 (centres unmarked)")
"A (A is <0.2)"
>>> reported_value("COc1cc(N2CCN(CCC3CCN(NC(=O)c4ccc(Nc5ncc(F)c(Nc6ccc(C(=O)Nc7ccccc7Cl)cc6)n5)cc4F)CC3)CC2)c(F)cc1C1CCC(=O)NC1=O (centres unmarked)")
"B (B is 0.2 to 0.4)"
>>> reported_value("O=C1CCC(c2ccc(N3CCC(CCN4CCC(NC(=O)c5ccc(Nc6ncc(F)c(Nc7ccc(C(=O)Nc8ccccc8Cl)cc7)n6)cc5)CC4)CC3)cc2)C(=O)N1 (centres unmarked)")
"B (B is 0.2 to 0.4)"
>>> reported_value("O=C1CCC(Nc2ccc(N3CCN(CC[C@H]4CC[C@H](NC(=O)c5ccc(Nc6ncc(F)c(Nc7ccc(C(=O)Nc8ccccc8Cl)cc7)n6)cc5)CC4)CC3)c(F)c2)C(=O)N1 (some centres unmarked)")
"A (A is <0.2)"
>>> reported_value("O=C1CCC(c2ccc(N3CCN(CCC4CCN(NC(=O)c5ccc(Nc6ncc(F)c(Nc7ccc(C(=O)Nc8ccccc8Cl)cc7)n6)cc5)CC4)CC3)cc2F)C(=O)N1 (centres unmarked)")
"A (A is <0.2)"
>>> reported_value("C[C@H]1CN(CCC2CCN(NC(=O)c3ccc(Nc4ncc(F)c(Nc5ccc(C(=O)Nc6ccccc6Cl)cc5)n4)cc3)CC2)CCN1c1ccc(C2CCC(=O)NC2=O)cc1 (some centres unmarked)")
"A (A is <0.2)"
>>> reported_value("O=C1CCC(c2ccc(N3CCN(CCN4CC[C@@H](NC(=O)c5ccc(Nc6ncc(F)c(Nc7ccc(C(=O)Nc8ccccc8Cl)cc7)n6)cc5)C4)CC3)cc2)C(=O)N1 (some centres unmarked)")
"A (A is <0.2)"

###

# target_of_assay: Aurora kinase A (AURKA) (Homo sapiens)
# Construct: endogenous in cells; host or cells: HeLa LgBit (AURKA-HiBit KI), CRISPR/Cas9 knock-in at the endogenous AURKA locus
# protocol_description: Luciferase assay for AURKA in HeLa LgBit (AURKA-HiBit KI) cell line
# Type: cell-based
# measurement_context: 10 nM compound, HeLa LgBit (AURKA-HiBit KI) cells, measured after 12 hours
recorded_endpoint: luminescence value (Level)

>>> reported_value("O=C1CCC(c2ccc(N3CCN(CCC4CCN(NC(=O)c5ccc(Nc6ncc(F)c(Nc7ccc(C(=O)Nc8ccccc8Cl)cc7)n6)cc5)CC4)CC3)cc2)C(=O)N1 (centres unmarked)")
"A (A is <0.3)"
>>> reported_value("O=C1CCC(c2ccc(N3CCN(CCCC4CCN(NC(=O)c5ccc(Nc6ncc(F)c(Nc7ccc(C(=O)Nc8ccccc8Cl)cc7)n6)cc5)CC4)CC3)cc2)C(=O)N1 (centres unmarked)")
"A (A is <0.3)"
>>> reported_value("O=C1CCC(Nc2ccc(N3CCC(CN4CCC5(CC4)CCN(C(=O)c4ccc(Nc6ncc(F)c(Nc7ccc(C(=O)Nc8ccccc8Cl)cc7)n6)cc4)C5)CC3)cc2)C(=O)N1 (centres unmarked)")
"B (B is 0.3 to 0.5)"
>>> reported_value("O=C1CCC(c2ccc(N3CCN(CCC4CCN(NC(=O)c5ccc(Nc6ncc(F)c(Nc7ccc(C(=O)Nc8ccccc8)cc7)n6)cc5)CC4)CC3)cc2)C(=O)N1 (centres unmarked)")
"B (B is 0.3 to 0.5)"
>>> reported_value("O=C1CCC(c2ccc(N3CC(CN4CCC(NC(=O)c5ccc(Nc6ncc(F)c(Nc7ccc(C(=O)Nc8ccccc8Cl)cc7)n6)cc5)CC4)C3)cc2)C(=O)N1 (centres unmarked)")
"B (B is 0.3 to 0.5)"
